Assayed System: Mitogen-activated protein kinase kinase kinase kinase 1 (Homo sapiens)
Sequence (Q92918 whole entry): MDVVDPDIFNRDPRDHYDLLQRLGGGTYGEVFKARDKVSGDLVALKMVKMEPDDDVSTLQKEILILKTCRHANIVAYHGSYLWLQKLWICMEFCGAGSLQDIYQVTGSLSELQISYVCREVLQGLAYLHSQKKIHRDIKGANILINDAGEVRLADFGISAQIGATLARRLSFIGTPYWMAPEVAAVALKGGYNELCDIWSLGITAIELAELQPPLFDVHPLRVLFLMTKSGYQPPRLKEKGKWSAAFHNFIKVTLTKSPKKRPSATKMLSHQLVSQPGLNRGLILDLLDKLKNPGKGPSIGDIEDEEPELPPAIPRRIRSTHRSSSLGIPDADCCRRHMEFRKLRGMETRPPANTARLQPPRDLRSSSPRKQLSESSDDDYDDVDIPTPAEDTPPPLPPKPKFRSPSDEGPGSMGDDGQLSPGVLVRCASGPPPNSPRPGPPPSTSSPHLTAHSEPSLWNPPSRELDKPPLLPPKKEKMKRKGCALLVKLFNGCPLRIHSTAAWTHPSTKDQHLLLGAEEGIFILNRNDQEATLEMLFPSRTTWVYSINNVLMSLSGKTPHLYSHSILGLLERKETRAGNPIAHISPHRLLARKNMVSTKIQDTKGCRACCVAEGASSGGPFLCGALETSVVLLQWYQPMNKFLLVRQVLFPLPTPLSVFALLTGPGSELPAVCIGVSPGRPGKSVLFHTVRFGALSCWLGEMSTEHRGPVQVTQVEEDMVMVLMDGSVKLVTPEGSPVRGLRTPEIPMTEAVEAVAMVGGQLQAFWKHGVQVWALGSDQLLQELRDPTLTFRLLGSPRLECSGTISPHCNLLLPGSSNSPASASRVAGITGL
Assay Explanation: Binding Assay: Lanth: For the binding assay, 4 ul 2×HPK1 and Eu-anti-GST antibody were added to each well of the assay plate using a Multidrop reagent dispenser. The solutions were incubated in a 23 C incubator for 1 h. To each well of the assay plate was added 4 ul 2× Tracer-222 using a Multidrop reagent dispenser. The solutions were again incubated in a 23 C incubator for 1 h. The results of the assay were read using an Envision plate reader with the following parameters: TR_FRET, 340ex/615 and 665em; 100 usec Delay; and 200 usec integration.
Measurement Kind: Ki (nM)
Just the number in nM, nothing appended.

Cc1ccc(F)cc1-c1cc2cc(NC(=O)[C@H]3C[C@@H]3c3cnn(C)c3)ncc2c(N)n1 (racemic): 0.113
Cc1cc(N2CCC2=O)ncc1-c1cc2cc(NC(=O)[C@H]3C[C@@H]3c3cnn(C)c3)ncc2c(N)n1: 1.73
Nc1nc(-c2cncc3c2CCN3)cc2cc(NC(=O)[C@@H]3C[C@@H]3F)ncc12 (racemic): 0.154

## Task Which Ki value is on record for C=Cc1c(-c2cnccc2C)nc(N)c2cnc(NC(=O)[C@H]3C[C@@H]3CC#N)cc12 (racemic) ?
## Result 0.225

## Task Query `Cc1ccncc1-c1cc2cc(NC(=O)[C@H]3[C@@H](C)[C@@H]3CC#N)ncc2c(N)n1` next
## Result 0.763

## Task And the next one, Cn1ccc2cncc(-c3cc4cc(NC(=O)[C@@H]5C[C@@H]5F)ncc4c(N)n3)c21 (racemic) ?
## Result 101

## Task Another compound to look at: Cc1cnc(CO)cc1-c1cc2cc(NC(=O)[C@@H]3C[C@@H]3F)ncc2c(N)n1 (racemic)
## Result 18.3

## Task Similarly, Cc1cc(C(=O)N(C)C)ncc1-c1cc2cc(NC(=O)[C@H]3C[C@@H]3c3cnn(C)c3)ncc2c(N)n1 (racemic) ?
## Result 6.14

## Task Now consider N#C[C@@H]1C[C@H]1C(=O)Nc1cc2cc(-c3cnccc3C(F)(F)F)nc(N)c2cn1 (racemic) and answer again.
## Result 6.49

## Task Cc1cc(C(=O)OCc2ccccc2)ncc1-c1cc2cc(NC(=O)[C@H]3C[C@@H]3c3cnn(C)c3)ncc2c(N)n1 (racemic) , same question.
## Result 1.17

## Task Then this compound: Cc1ccncc1-c1cc2cc(Nc3cnn([C@H]4CN(C5COC5)CC[C@@H]4O)c3)ncc2c(N)n1 (racemic)
## Result 0.567

## Task // next record CCc1ccncc1-c1cc2cc(NC(=O)[C@H]3C[C@H]3C#N)ncc2c(N)n1 (single isomer, unassigned)
## Result 3.64

## Task Can you handle Nc1nc(-c2cncc3c2OCCN3)cc2cc(NC(=O)[C@@H]3C[C@@H]3F)ncc12 (racemic) next?
## Result 0.135

## Task `Cc1cc(-c2ccn(C)n2)ncc1-c1cc2cc(NC(=O)[C@H]3C[C@@H]3c3cnn(C)c3)ncc2c(N)n1` , same question.
## Result 2.26

## Task Please do the same for Cc1ccncc1-c1cc2cc(NC(=O)[C@@H]3C[C@H]3F)ncc2c(N)n1 (single isomer, unassigned) as well.
## Result 2.8

## Task Next: CCc1cc(N)ncc1-c1cc2cc(NC(=O)[C@@H]3C[C@@H]3F)ncc2c(N)n1 (racemic)
## Result 5.76

## Task Try Cc1c(N)cncc1-c1cc2cc(NC(=O)[C@H]3C[C@@H]3C(F)(F)F)ncc2c(N)n1 (racemic) next.
## Result 1.1

## Task And for Cc1ccncc1-c1cc2cc(NC(=O)[C@H]3C[C@@H]3c3ncccn3)ncc2c(N)n1 (racemic) ?
## Result 10
